Here the recorded %Inh is given for each entry.
Tested on: INSRR
CONDITION_INFO: concentration: 1 μM, replicates: in singlicate; n = 1;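 also: KINOMEscan kinase panel screen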
# value in %; strip the unit string

Answered cases to consult:
// sample COc1cc2nccc(Nc3cccc(Oc4ccccc4)c3)c2cc1OC.Cl , its %Inh was 0

// sample Nc1nccc2scc(-c3ccc4c(c3)CCN4C(=O)Cc3ccccc3)c12 , its %Inh was 0

// sample C[C@@H]1CC[C@H](C(=O)NC2CCCCC2)CN1c1cc(-c2ccc3c(N)n[nH]c3c2)nc(N)n1 , its %Inh was 0

// sample Cc1nn2c(=O)cc(N3CCOCC3)nc2n1Cc1cccc(Cl)c1Cl , its %Inh was 0

// sample COc1ccc(-n2cnc3c(N)ncnc32)cc1 , its %Inh was 2

// sample Nc1ncnc2c1ncn2-c1cccc2ccccc12 , its %Inh was 0

// sample COc1cc2nccc(Nc3ccc(OCc4ccc(NC(C)=O)cc4)cc3)c2cc1OC.Cl , its %Inh was 8

// sample COc1ccc(CNC(=O)NC2CCN(c3ccnc(Nc4ccc(F)cc4)n3)C2)cc1 (stereo not drawn) , its %Inh was 0

Query compound follows.
// sample Cc1cccc(-c2nc(Nc3ccc4c(cnn4C)c3)c3ccccc3n2)n1 , its %Inh was 15

###

System: p38-alpha
Construct: gene MAPK14
CONDITION_INFO: concentration: 1 μM, replicates: in singlicate; n = 1
ENDPOINT: %Inh

Answered cases to consult:
Result for COc1ccc(-c2cc3c(C)nc(N)nc3n([C@H]3CC[C@H](OCCO)CC3)c2=O)cn1 , tested on p38-alpha, %Inh: 0%

Result for Nc1ncnc2c1ncn2-c1cccc2ccccc12 , tested on p38-alpha, %Inh: 0%

Result for Fc1cccc(CSc2nnc(-c3ccc4c(c3)CCO4)o2)c1 , tested on p38-alpha, %Inh: 0%

Query compound follows.
Result for O=C(NCCNc1ccnc(Nc2ccc(F)cc2)n1)Nc1ccc2c(c1)OCO2 , tested on p38-alpha, %Inh: 19%

###

Tested on: RPS6KA5(Kin.Dom.1-N-terminal)
CONDITION_INFO: concentration: 1 μM, replicates: in singlicate; n = 1
Here the recorded %Inh is given for each entry.
# value in %; strip the unit string

// sample COC(=O)c1c(-c2ccccc2)c2cc(Br)ccc2c(=O)n1Cc1ccc(S(C)(=O)=O)cc1 , its %Inh was 24

// sample O=C1NC(=O)C(c2ccccc2)=C1Nc1cccc(O)c1 [SB-390534] , its %Inh was 0

More entries:
// sample Cl.NS(=O)(=O)c1cccc(Nc2cc(-c3ccc(F)cc3)n[nH]2)c1 [GW824645] , its %Inh was 0

// sample O=c1cc(N2CCOCC2)nc2n(Cc3ccc(F)c(Cl)c3)ccn12 [GSK2297099] , its %Inh was 16

###

System: PIP5K2B
CONDITION_INFO: concentration: 1 μM, replicates: in singlicate; n = 1
ENDPOINT: %Inh (%)
# value in %; strip the unit string

Answered cases to consult:
// sample Cc1cccc(-c2nc(Nc3ccc4c(cnn4C)c3)c3ccccc3n2)n1 , its %Inh was 0

// sample Nc1nccc2scc(-c3ccc4c(c3)CCN4C(=O)Cc3ccccc3)c12 , its %Inh was 15

// sample Cc1ccccc1COc1cc(-n2cnc3cc(Cl)ccc32)sc1C(N)=O , its %Inh was 0

// sample Cc1cc(Nc2nc(-c3cccc(C)n3)nc3ccccc23)ccn1 , its %Inh was 0

Query compound follows.
// sample CCn1c(-c2nonc2N)nc2ccccc21 , its %Inh was 0
